# Read-out: Broad substrate specificity ATP-binding cassette transporter ABCG2 (Homo sapiens)
# EXPERIMENT_DESCRIPTION: LTEA_HepaRG_ABCG2: Life Technologies and Expression Analysis (LTEA) Assay for ABC Transporter (ABCG2) using HepaRG (AID 2283465)
# CONDITION_LABEL: mRNA level, 48 h; actives raise or lower the signal
Calls of active or inactive are those of the source. How the source made its calls: active means hit-call score of the fitted dose curve at least 0.9, where 1 is the maximum; inactive means score below 0.9.
Outcome codes: true for active, false for inactive

In [3]: df
Out[3]:
                                    compound  category_label
 0  CCCCOC(=O)C(C)Oc1ccc(Oc2ccc(C(F)(F)F)cn2)cc1 (centres undefined)           false
 1               CN(C)C(=O)Nc1ccc(Cl)c(Cl)c1            true
 2             O=C(c1ccc(O)cc1O)c1ccc(O)cc1O           false
 3  CCCCOC(=O)[C@@H](C)Oc1ccc(Oc2ccc(C(F)(F)F)cn2)cc1           false
 4                  COc1c(Cl)ccc(Cl)c1C(=O)O           false
 5                      CSC(=O)c1cccc2nnsc12           false
 6  CCOC(=O)C(C)Oc1ccc(Oc2cnc3cc(Cl)ccc3n2)cc1 (centres undefined)           false
 7      Oc1ccc(C(c2ccc(O)cc2)C(Cl)(Cl)Cl)cc1            true
 8  CC(C)(C)[C@@H](O)[C@@H](Cc1ccc(Cl)cc1)n1cncn1           false
 9  C=CCOC(Cn1ccnc1)c1ccc(Cl)cc1Cl (centres undefined)            true
10  CCCCCOC(=O)COc1cc(N2C(=O)C3=C(CCCC3)C2=O)c(F)cc1Cl           false
11  C[C@]12C[C@H](O)[C@H]3[C@@H](CCC4=CC(=O)CC[C@@]43C)[C@@H]1CC[C@@H]2C(=O)CO            true
12                                    OB(O)O           false
13                            O=C(O)c1ccccc1           false
14  CCCN(CCC)c1c([N+](=O)[O-])cc(C(F)(F)F)c(N)c1[N+](=O)[O-]           false
15                       N#CSCSc1nc2ccccc2s1           false
16  COC(=O)c1ccc(I)cc1S(=O)(=O)NC(=O)Nc1nc(C)nc(OC)n1           false
17  CC1(C)C(C=C(Cl)Cl)C1C(=O)OCc1cccc(Oc2ccccc2)c1 (centres undefined)           false
18  Cc1nn(C)c(Oc2ccccc2)c1C=NOCc1ccc(C(=O)OC(C)(C)C)cc1            true
19                     COC(=O)c1ccccc1C(=O)O           false
20  CCCCC(CC)CN1C(=O)C2C3C=CC(C3)C2C1=O (centres undefined)            true
21           CCOC(=O)NCCOc1ccc(Oc2ccccc2)cc1            true
22  COC(=O)CSc1cc(N=c2sc(=O)n3n2CCCC3)c(F)cc1Cl           false
23                                     COCCO           false
24            CCCCOCCOCCOCc1cc2c(cc1CCC)OCO2            true
25                     O=C(c1ccccc1)C1CCCCC1           false
26         O=C(O)C1(C(=O)Nc2ccc(Cl)cc2Cl)CC1            true
27  CCOC(=O)C(C)Oc1ccc(Oc2nc3ccc(Cl)cc3o2)cc1 (centres undefined)           false
28  CC(=O)[C@H]1CC[C@H]2[C@@H]3CCC4=CC(=O)CC[C@]4(C)[C@H]3CC[C@]12C            true

* * *

# EXPERIMENT_DESCRIPTION: ATG_CRE_CIS: Attagene CIS-FACTORIAL HepG2 Assay for human cAMP Responsive Element (CRE) binding protein 3 (AID 2282926)
# CONDITION_LABEL: HepG2 CRE cis-reporter, Attagene multiplexed mRNA; actives raise or lower the signal
The source made the active and inactive calls. Rule for the calls: active = hit-call score of the fitted dose curve at least 0.9, where 1 is the maximum; inactive = score below 0.9.
Outcome codes: 1.0 = active, 0.0 = inactive

In [3]: df
Out[3]:
                                    molecule  category_label
 0  CCC(C)OC(=O)N1CCCCC1CCO (centres undefined)             0.0
 1  COc1nc(C)nc(NC(=O)NS(=O)(=O)c2ccccc2OCCCl)n1             0.0
 2  CCN(Cc1c(F)cccc1Cl)c1c([N+](=O)[O-])cc(C(F)(F)F)cc1[N+](=O)[O-]             0.0
 3  CCCCCCC(C)OC(=O)COc1nc(F)c(Cl)c(N)c1Cl (centres undefined)             0.0
 4              CCCOC(=O)c1ccc(C(=O)OCCC)nc1             0.0
 5                                     COCCO             0.0
 6                   CCN(CC)C(=O)c1cccc(C)c1             0.0
 7  C=CCOC(Cn1ccnc1)c1ccc(Cl)cc1Cl (centres undefined)             1.0
 8                   CCSC(=O)N(CC(C)C)CC(C)C             0.0
 9  CCCCC(CC)COC(=O)c1ccccc1C(=O)O (centres undefined)             0.0
10               CN(C)C(=O)Nc1ccc(Cl)c(Cl)c1             0.0
11  CC(=O)[C@H]1CC[C@H]2[C@@H]3CCC4=CC(=O)CC[C@]4(C)[C@H]3CC[C@]12C             0.0
12                c1ccc2[nH]c(-c3cscn3)nc2c1             0.0
13  C[C@]12C[C@H](O)[C@H]3[C@@H](CCC4=CC(=O)CC[C@@]43C)[C@@H]1CC[C@@H]2C(=O)CO             0.0
14  O=C(Nc1ccc([N+](=O)[O-])cc1Cl)c1cc(Cl)ccc1O             1.0
15  COC(=O)c1ccccc1S(=O)(=O)NC(=O)Nc1nc(OC(F)F)cc(OC(F)F)n1             0.0
16  CCCN(CCC)c1c([N+](=O)[O-])cc(C(F)(F)F)c(N)c1[N+](=O)[O-]             0.0
17  COC(=O)c1c(Cl)nn(C)c1S(=O)(=O)NC(=O)Nc1nc(OC)cc(OC)n1             0.0
18      Oc1ccc(C(c2ccc(O)cc2)C(Cl)(Cl)Cl)cc1             0.0
19  COC(=O)CSc1cc(N=c2sc(=O)n3n2CCCC3)c(F)cc1Cl             0.0
20             O=C(c1ccc(O)cc1O)c1ccc(O)cc1O             0.0
21             S=C([S-])NCCNC(=S)[S-].[Mn+2]             0.0
22  CCCCCOC(=O)COc1cc(N2C(=O)C3=C(CCCC3)C2=O)c(F)cc1Cl             0.0
23  C#C[C@]1(O)CC[C@H]2[C@@H]3CCC4=CC(=O)CC[C@@H]4[C@H]3CC[C@@]21CC             0.0

* * *

# EXPERIMENT_DESCRIPTION: APR_HepG2_MitoMembPot_72hr: Apredica 72-hour HepG2 Assay for Mitochondrial Membrane Potential (AID 2282917)
# CONDITION_LABEL: imaging, actives raise or lower the signal
Active and inactive are the calls of the source. Rule for the calls: active = hit-call score of the fitted dose curve at least 0.9, where 1 is the maximum; inactive = score below 0.9.
Outcome codes: active, inactive

>>> print(df.to_string())
                                    compound  category_label
 0                  COc1c(Cl)ccc(Cl)c1C(=O)O        inactive
 1  CCOC(=O)C(C)Oc1ccc(Oc2nc3ccc(Cl)cc3o2)cc1 (centres undefined)        inactive
 2  C#C[C@]1(O)CC[C@H]2[C@@H]3CCC4=CC(=O)CC[C@@H]4[C@H]3CC[C@@]21CC        inactive
 3  CCCCCOC(=O)COc1cc(N2C(=O)C3=C(CCCC3)C2=O)c(F)cc1Cl        inactive
 4                     O=C(c1ccccc1)C1CCCCC1        inactive
 5  COC(=O)c1ccc(CNS(C)(=O)=O)cc1S(=O)(=O)NC(=O)Nc1nc(OC)cc(OC)n1        inactive
 6             S=C([S-])NCCNC(=S)[S-].[Mn+2]        inactive
 7  COC(=O)CSc1cc(N=c2sc(=O)n3n2CCCC3)c(F)cc1Cl        inactive
 8  CCCCC(CC)CN1C(=O)C2C3C=CC(C3)C2C1=O (centres undefined)        inactive
 9                                    OB(O)O        inactive
10  CCC(C)OC(=O)N1CCCCC1CCO (centres undefined)        inactive
11  C[C@]12C[C@H](O)[C@H]3[C@@H](CCC4=CC(=O)CC[C@@]43C)[C@@H]1CC[C@@H]2C(=O)CO          active
12                            O=C(O)c1ccccc1        inactive
13  CCCCCCC(C)OC(=O)COc1nc(F)c(Cl)c(N)c1Cl (centres undefined)        inactive
14  COC(=O)c1ccc(I)cc1S(=O)(=O)NC(=O)Nc1nc(C)nc(OC)n1        inactive
15         O=C(O)C1(C(=O)Nc2ccc(Cl)cc2Cl)CC1        inactive
16      Oc1ccc(C(c2ccc(O)cc2)C(Cl)(Cl)Cl)cc1        inactive
17                c1ccc2[nH]c(-c3cscn3)nc2c1        inactive
18  Cc1nn(C)c(Oc2ccccc2)c1C=NOCc1ccc(C(=O)OC(C)(C)C)cc1        inactive
19               CN(C)C(=O)Nc1ccc(Cl)c(Cl)c1          active
20                       N#CSCSc1nc2ccccc2s1          active
21                         CCCN(CCC)C(=O)SCC        inactive
22  COc1nc(C)nc(NC(=O)NS(=O)(=O)c2ccccc2OCCCl)n1        inactive
23              CCCOC(=O)c1ccc(C(=O)OCCC)nc1        inactive
